Quick reference: composite z-score of the listed items.
experiment: probe aNOTCH3 binding on compound microarray – biochemical, small-molecule microarray, 635/667 nm fluorescence, primary screen (AID 1120);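 note: probe is a biotin-tagged antibody raised against NOTCH3 rather than NOTCH3 protein; score merges spot fluorescence near 667 nm with spot signal to noise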
cond: higher = more signal
Give only the figure.

C=CCOC(=O)[C@H]1[C@@H]2C(=O)O[C@@H](c3ccccc3)[C@@H](c3ccccc3)N2[C@@H](c2ccc(OCCOC(=O)[C@@H]3C[C@@H]4C(=O)N[C@@H](CCCCNC(C)=O)C(=O)N4[C@@H]3c3cccc(OCCO)c3)cc2)[C@]12C(=O)Nc1ccccc12
0.116

Entry "CCOC(=O)c1cn(C[C@H](Cc2ccccc2)NC(=O)N[C@H](CO)CCc2oc(C(C)=O)c(C(=O)OC)c2C(=O)OC)nn1" needs its composite z-score filled in; supply it.
0.269

Dear colleague, please send me the reported composite z-score for CC(=O)c1ccc(C(O)C2C=CC3C(=O)N(c4ccccc4)C(=O)C3N2Nc2ccc(C(C)C)cc2)cc1 (stereo not drawn) when you can.
0.247
